Assay target: T1, Cynomolgus monkey glycophorin A on Cynomolgus monkey red blood cells or red blood cell membranes (Cynomolgus monkey)
T1 construct: whole, on cells; also called Cyno RBC; Cynomolgus monkey RBC membranes
Protocol details: Fab 7 ug/ml on intact cyno RBC, unbound Fab by ELISA; pre-dilution
Endpoint: percentage of input antibody bound (%)
# number only, unit % dropped from output

TPP-7793, affinity matured 6C12 Fab (Fab, V domains shown, Tested as Fab) VH: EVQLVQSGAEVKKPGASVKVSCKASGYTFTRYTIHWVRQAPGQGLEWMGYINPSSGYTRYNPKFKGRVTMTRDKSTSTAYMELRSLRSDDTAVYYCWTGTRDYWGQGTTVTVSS VL: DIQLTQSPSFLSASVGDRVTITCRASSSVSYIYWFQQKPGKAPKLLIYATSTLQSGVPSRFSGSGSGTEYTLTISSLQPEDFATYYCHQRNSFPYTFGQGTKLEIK	72
TPP-7781, affinity matured 6C12 Fab (Fab, V domains shown, Tested as Fab) VH: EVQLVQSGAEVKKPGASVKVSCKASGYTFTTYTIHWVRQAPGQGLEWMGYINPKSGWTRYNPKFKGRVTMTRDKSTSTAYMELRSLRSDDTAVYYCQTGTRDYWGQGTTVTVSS VL: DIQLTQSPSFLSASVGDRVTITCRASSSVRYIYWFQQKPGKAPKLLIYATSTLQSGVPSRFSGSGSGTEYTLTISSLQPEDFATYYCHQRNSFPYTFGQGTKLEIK	86
TPP-7794, affinity matured 6C12 Fab (Fab, V domains shown, Tested as Fab) VH: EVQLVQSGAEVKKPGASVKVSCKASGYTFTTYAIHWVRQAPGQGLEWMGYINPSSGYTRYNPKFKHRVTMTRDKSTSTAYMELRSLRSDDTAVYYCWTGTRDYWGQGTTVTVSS VL: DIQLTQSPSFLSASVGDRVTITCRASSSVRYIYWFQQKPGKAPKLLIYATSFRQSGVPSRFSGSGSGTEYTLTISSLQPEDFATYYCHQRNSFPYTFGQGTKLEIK	73

Note: attention shifts to another entry.
Query TPP-7796, affinity matured 6C12 Fab (Fab, V domains shown, Tested as Fab) VH: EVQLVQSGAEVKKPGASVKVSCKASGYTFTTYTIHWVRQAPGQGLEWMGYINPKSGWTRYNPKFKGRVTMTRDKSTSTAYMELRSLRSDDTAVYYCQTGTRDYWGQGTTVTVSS VL: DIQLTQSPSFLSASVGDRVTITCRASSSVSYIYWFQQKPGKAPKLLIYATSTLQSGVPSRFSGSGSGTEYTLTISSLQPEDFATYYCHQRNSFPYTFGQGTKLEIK yields percentage of input antibody bound of 68
